# MEASURED_ON: HLA-A*02:01 (Homo sapiens, UniProt P04439, D140Y/D185E/D98H/E176V/E277Q/G131W/G231S/I119V/I121R/I166T/I218V/L300P/L318F/N151K/N90K/P208A/P217A/Q86G/Q94H/R138H/R169H/T345S)
# PROTOCOL_NOTES: MHC binding assay (UV-ligand exchange, beta2m ELISA, peptide exchange yield)
# TEST_CONDITIONS: binding of HLA-class I restricted peptides to HLA-A*02:01, ranged by peptide exchange yield (UV-ligand exchange, β2m ELISA)
PARAMETER: Peptide exchange

Would you please look over these solved cases?
                                  substance          test_value
0  385 (SLLEQGLVEA; listed as Homo sapiens) [compound 385]    ″++″ (≥20% = ++)
1  574 (YLLQEPPRTV; listed as Homo sapiens) [compound 574]    ″++″ (≥20% = ++)
2  547 (TLDITPHTV; listed as Homo sapiens) [compound 547]  ″+++″ (≥50% = +++)
3  477 (ALLPASGQIAL; listed as Homo sapiens) [compound 477]  ″+++″ (≥50% = +++)

Given the entry 134 (YLQELIFSV; listed as Homo sapiens) [compound 134] , report its measured Peptide exchange.
″+++″ (≥50% = +++)

* * *

# MEASURED_ON: HLA-A*02:01 (Homo sapiens, UniProt P04439, D140Y/D185E/D98H/E176V/E277Q/G131W/G231S/I119V/I121R/I166T/I218V/L300P/L318F/N151K/N90K/P208A/P217A/Q86G/Q94H/R138H/R169H/T345S)
# PROTOCOL_NOTES: MHC binding assay (UV-ligand exchange, beta2m ELISA, peptide exchange yield)
# TEST_CONDITIONS: binding of HLA-class I restricted peptides to HLA-A*02:01, ranged by peptide exchange yield (UV-ligand exchange, β2m ELISA)
PARAMETER: Peptide exchange

                                  substance         parameter            test_value
0  127 (KIGDEPPKV; listed as Homo sapiens) [compound 127]  Peptide exchange      ″++″ (≥20% = ++)
1  506 (KLLGKVETA; listed as Homo sapiens) [compound 506]  Peptide exchange    ″+++″ (≥50% = +++)
2  517 (LLMPIPEGLTL; listed as Homo sapiens) [compound 517]  Peptide exchange    ″+++″ (≥50% = +++)
3  187 (RQISIRGIVGV; listed as Homo sapiens) [compound 187]  Peptide exchange    ″+++″ (≥50% = +++)
4  230 (ILVDWLVEV; listed as Homo sapiens) [compound 230]  Peptide exchange        ″+″ (≥10% = +)
5  569 (KLVDRTWTL; listed as Homo sapiens) [compound 569]  Peptide exchange    ″+++″ (≥50% = +++)
6  80 (FLYDNLVESL; listed as Homo sapiens) [compound 80]  Peptide exchange      ″++″ (≥20% = ++)
7  305 (SIANFSEFYV; listed as Homo sapiens) [compound 305]  Peptide exchange  ″++++″ (≥75% = ++++)
8  62 (VLLDVSAGQLLM; listed as Homo sapiens) [compound 62]  Peptide exchange  ″++++″ (≥75% = ++++)
9  10 (FLATFPLAAV; listed as Homo sapiens) [compound 10]  Peptide exchange  ″++++″ (≥75% = ++++)

Given the entry 542 (RVWDISTVSSV; listed as Homo sapiens) [compound 542] , report its measured Peptide exchange.
″+++″ (≥50% = +++)

Given the entry 345 (VIWKALIHL; listed as Homo sapiens) [compound 345] , report its measured Peptide exchange.
″+++″ (≥50% = +++)

Given the entry 322 (TLMTSLPAL; listed as Homo sapiens) [compound 322] , report its measured Peptide exchange.
″+++″ (≥50% = +++)

Given the entry 579 (NLMEMVAQL; listed as Homo sapiens) [compound 579] , report its measured Peptide exchange.
″++″ (≥20% = ++)

Given the entry 392 (ALLHPQGFEV; listed as Homo sapiens) [compound 392] , report its measured Peptide exchange.
″++″ (≥20% = ++)

Given the entry 116 (YHIDEEVGF; listed as Homo sapiens) [compound 116] , report its measured Peptide exchange.
″+″ (≥10% = +)

Given the entry 403 (KLYDRILRV; listed as Homo sapiens) [compound 403] , report its measured Peptide exchange.
″++″ (≥20% = ++)

Given the entry 479 (SLFGNSGILENV; listed as Homo sapiens) [compound 479] , report its measured Peptide exchange.
″+++″ (≥50% = +++)

Given the entry 147 (SLLEAVSFL; listed as Homo sapiens) [compound 147] , report its measured Peptide exchange.
″+++″ (≥50% = +++)

Given the entry 501 (LLDPNVKSIFV; listed as Homo sapiens) [compound 501] , report its measured Peptide exchange.
″+++″ (≥50% = +++)

Given the entry 40 (TLLVKVFSV; listed as Homo sapiens) [compound 40] , report its measured Peptide exchange.
″+++″ (≥50% = +++)

Given the entry 151 (KILQQLVTL; listed as Homo sapiens) [compound 151] , report its measured Peptide exchange.
″+++″ (≥50% = +++)

Given the entry 186 (TLFFQQNAL; listed as Homo sapiens) [compound 186] , report its measured Peptide exchange.
″++″ (≥20% = ++)

* * *

# MEASURED_ON: HLA-A*02:01 (Homo sapiens, UniProt P04439, D140Y/D185E/D98H/E176V/E277Q/G131W/G231S/I119V/I121R/I166T/I218V/L300P/L318F/N151K/N90K/P208A/P217A/Q86G/Q94H/R138H/R169H/T345S)
# PROTOCOL_NOTES: MHC binding assay (UV-ligand exchange, beta2m ELISA, peptide exchange yield)
# TEST_CONDITIONS: binding of HLA-class I restricted peptides to HLA-A*02:01, ranged by peptide exchange yield (UV-ligand exchange, β2m ELISA)
PARAMETER: Peptide exchange

>>> df
                                  substance          test_value
0  15 (VLLTFKIFL; listed as Homo sapiens) [compound 15]    ″++″ (≥20% = ++)
1  468 (YLRSVGDGETV; listed as Homo sapiens) [compound 468]  ″+++″ (≥50% = +++)
2  376 (AMFESSQNVLL; listed as Homo sapiens) [compound 376]    ″++″ (≥20% = ++)
3  591 (SMAELDIKL; listed as Homo sapiens) [compound 591]  ″+++″ (≥50% = +++)

Given the entry 100 (YLLSTNAQL; listed as Homo sapiens) [compound 100] , report its measured Peptide exchange.
″++++″ (≥75% = ++++)

Given the entry 289 (VLLEIEDLQV; listed as Homo sapiens) [compound 289] , report its measured Peptide exchange.
″++++″ (≥75% = ++++)

Given the entry 508 (ILAQEQLVVGV; listed as Homo sapiens) [compound 508] , report its measured Peptide exchange.
″+++″ (≥50% = +++)

Given the entry 391 (YVYPQRLNFV; listed as Homo sapiens) [compound 391] , report its measured Peptide exchange.
″+++″ (≥50% = +++)

Given the entry 489 (KMWEELPEVV; listed as Homo sapiens) [compound 489] , report its measured Peptide exchange.
″+++″ (≥50% = +++)

* * *

# MEASURED_ON: HLA-A*02:01 (Homo sapiens, UniProt P04439, D140Y/D185E/D98H/E176V/E277Q/G131W/G231S/I119V/I121R/I166T/I218V/L300P/L318F/N151K/N90K/P208A/P217A/Q86G/Q94H/R138H/R169H/T345S)
# PROTOCOL_NOTES: MHC binding assay (UV-ligand exchange, beta2m ELISA, peptide exchange yield)
# TEST_CONDITIONS: binding of HLA-class I restricted peptides to HLA-A*02:01, ranged by peptide exchange yield (UV-ligand exchange, β2m ELISA)
PARAMETER: Peptide exchange

Would you please look over these solved cases?
>>> df
                                  substance         parameter            test_value
0  304 (MTLGQIYYL; listed as Homo sapiens) [compound 304]  Peptide exchange    ″+++″ (≥50% = +++)
1  340 (ALLSMTFPL; listed as Homo sapiens) [compound 340]  Peptide exchange  ″++++″ (≥75% = ++++)
2  149 (NLLELFVQL; listed as Homo sapiens) [compound 149]  Peptide exchange    ″+++″ (≥50% = +++)
3  441 (ALLENPKMEL; listed as Homo sapiens) [compound 441]  Peptide exchange    ″+++″ (≥50% = +++)
4  478 (YLLHEKLNL; listed as Homo sapiens) [compound 478]  Peptide exchange    ″+++″ (≥50% = +++)

Given the entry 70 (GLLDYPVGV; listed as Homo sapiens) [compound 70] , report its measured Peptide exchange.
″+++″ (≥50% = +++)

Given the entry 306 (ALVNVQIPL; listed as Homo sapiens) [compound 306] , report its measured Peptide exchange.
″+++″ (≥50% = +++)

Given the entry 307 (ALPVSLPQI; listed as Homo sapiens) [compound 307] , report its measured Peptide exchange.
″+++″ (≥50% = +++)

Given the entry 235 (YLNDLHEVLL; listed as Homo sapiens) [compound 235] , report its measured Peptide exchange.
″++++″ (≥75% = ++++)
